assayProcedure: Aqueous solubility of the compound in simulated intestinal fluid at pH 6.8
Assay type: ADME
conditionDetails: simulated gi fluid
measuredProperty: solubility

[[record]]
mol = "CCCS(=O)(=O)Nc1ccc(F)c(C(=O)c2c[nH]c3ncc(-c4cncc(S(C)(=O)=O)c4)cc23)c1F"
measuredproperty = "solubility"
valuereported = "Insoluble"

[[record]]
mol = "CCCS(=O)(=O)Nc1ccc(F)c(C(=O)c2c[nH]c3ncc(-c4ccc(OC)nc4OC)cc23)c1F"
measuredproperty = "solubility"
valuereported = "Insoluble"

[[record]]
mol = "CCCS(=O)(=O)Nc1ccc(F)c(C(=O)c2c[nH]c3ncc(-c4ccc(S(=O)(=O)NC5CC5)cc4)cc23)c1F"
measuredproperty = "solubility"
valuereported = "Insoluble"

[[record]]
mol = "CCCS(=O)(=O)Nc1ccc(F)c(C(=O)c2c[nH]c3ncc(-c4ccc(NS(C)(=O)=O)cc4)cc23)c1F"
measuredproperty = "solubility"
valuereported = "Insoluble"

[[record]]
mol = "N#Cc1ccnc2[nH]cc(C(=O)c3c(F)ccc(NS(=O)(=O)c4ccccc4F)c3F)c12"
measuredproperty = "solubility"
valuereported = "Soluble"


Sure, the documented solubility for COc1cnc2[nH]cc(C(=O)c3c(F)ccc(NS(=O)(=O)c4cc(F)ccc4F)c3F)c2c1 is Soluble

Quick note, solubility for CCCS(=O)(=O)Nc1ccc(F)c(C(=O)c2c[nH]c3ncc(-c4ccc(S(=O)(=O)N(C)C)cc4)cc23)c1F landed at Insoluble

Looking up CCCS(=O)(=O)Nc1ccc(F)c(C(=O)c2c[nH]c3ncc(-c4ccc(OCCCN5CCCC5)nc4)cc23)c1F , I found its solubility recorded as Insoluble

Record CCCS(=O)(=O)Nc1ccc(F)c(C(=O)c2c[nH]c3ncc(C#CCOC)cc23)c1F . Reported solubility: Insoluble

# solubility (compound: COc1cnc2[nH]cc(C(=O)c3c(F)ccc(NS(=O)(=O)c4ccccc4F)c3F)c2c1 ) is Insoluble

compound Cc1cnc2[nH]cc(C(=O)c3c(F)ccc(NS(=O)(=O)c4cccnc4)c3F)c2c1 , solubility observed: Soluble

* * *

assayProcedure: Aqueous solubility of the compound in simulated intestinal fluid at pH 6.8
Type: ADME
conditionDetails: simulated gi fluid
measuredProperty: solubility

[[record]]
mol = "COc1ccnc2[nH]cc(C(=O)c3c(F)ccc(NS(=O)(=O)c4cc(F)ccc4F)c3F)c12"
measuredproperty = "solubility"
valuereported = "Soluble"

[[record]]
mol = "CCCS(=O)(=O)Nc1ccc(F)c(C(=O)c2c[nH]c3ncc(-c4ccc(OCCN5CCOCC5)nc4)cc23)c1F"
measuredproperty = "solubility"
valuereported = "Insoluble"

[[record]]
mol = "CCCS(=O)(=O)Nc1ccc(F)c(C(=O)c2c[nH]c3ncc(-c4cnn(Cc5ccccc5)c4)cc23)c1F"
measuredproperty = "solubility"
valuereported = "Insoluble"

[[record]]
mol = "Cc1cnc2[nH]cc(C(=O)c3c(F)ccc(NS(=O)(=O)c4ccccc4F)c3F)c2c1"
measuredproperty = "solubility"
valuereported = "Soluble"


* * *

assayProcedure: Aqueous solubility of the compound in simulated gastric fluid at pH 1.5
Assay type: ADME
conditionDetails: simulated gi fluid
measuredProperty: solubility

Answered examples (7):
[[record]]
mol = "CCCS(=O)(=O)Nc1ccc(F)c(C(=O)c2c[nH]c3ncc(-c4ccnc(F)c4)cc23)c1F"
valuereported = "Insoluble"

[[record]]
mol = "CCCS(=O)(=O)Nc1ccc(F)c(C(=O)c2c[nH]c3ncc(-c4cnc(N5CCOCC5)nc4)cc23)c1F"
valuereported = "Soluble"

[[record]]
mol = "N#Cc1cnc2[nH]cc(C(=O)c3cccc(NS(=O)(=O)c4cccc(F)c4)c3F)c2c1"
valuereported = "Insoluble"

[[record]]
mol = "CCCS(=O)(=O)Nc1ccc(F)c(C(=O)c2c[nH]c3ncc(-c4ccc(C(=O)NCC)nc4)cc23)c1F"
valuereported = "Insoluble"

[[record]]
mol = "CCCS(=O)(=O)Nc1ccc(F)c(C(=O)c2c[nH]c3ncc(-c4cnn(CCN5CCOCC5)c4)cc23)c1F"
valuereported = "Soluble"

[[record]]
mol = "CCCS(=O)(=O)Nc1ccc(F)c(C(=O)c2c[nH]c3ncc(-c4cnc(N(C)C)nc4)cc23)c1F"
valuereported = "Soluble"

[[record]]
mol = "CCCS(=O)(=O)Nc1ccc(F)c(C(=O)c2c[nH]c3ncc(-c4ccc(S(C)(=O)=O)cc4)cc23)c1F"
valuereported = "Insoluble"


Moving on to another molecule below.
response.value for CCCS(=O)(=O)Nc1ccc(F)c(C(=O)c2c[nH]c3ncc(-c4cn[nH]c4)cc23)c1F (field: solubility) = Insoluble

* * *

assayProcedure: Aqueous solubility of the compound in simulated intestinal fluid at pH 4.5
Type: ADME
conditionDetails: simulated gi fluid
measuredProperty: solubility

Record excerpt, results attached:
[[record]]
mol = "CCCS(=O)(=O)Nc1ccc(F)c(C(=O)c2c[nH]c3ncc(C#CCOC)cc23)c1F"
measuredproperty = "solubility"
valuereported = "Soluble"

[[record]]
mol = "N#Cc1cnc2[nH]cc(C(=O)c3cccc(NS(=O)(=O)c4cccc(F)c4)c3F)c2c1"
measuredproperty = "solubility"
valuereported = "Insoluble"

[[record]]
mol = "CCCS(=O)(=O)Nc1ccc(F)c(C(=O)c2c[nH]c3ncc(-c4ccc(C(=O)NC)nc4)cc23)c1F"
measuredproperty = "solubility"
valuereported = "Insoluble"

[[record]]
mol = "O=C(c1c(F)ccc(NS(=O)(=O)c2cccc(F)c2)c1F)c1c[nH]c2nccc(Cl)c12"
measuredproperty = "solubility"
valuereported = "Soluble"

[[record]]
mol = "O=C(c1c(F)ccc(NS(=O)(=O)c2cc(F)ccc2F)c1F)c1c[nH]c2nccc(Cl)c12"
measuredproperty = "solubility"
valuereported = "Soluble"


solubility measured on CCCS(=O)(=O)Nc1ccc(F)c(C(=O)c2c[nH]c3ncc(-c4cnn(Cc5ccccc5)c4)cc23)c1F = Insoluble

// field: solubility; key: CCCS(=O)(=O)Nc1ccc(F)c(C(=O)c2c[nH]c3ncc(-c4ccc(NS(C)(=O)=O)cc4)cc23)c1F ; value = Insoluble

// CCCS(=O)(=O)Nc1cccc(C(=O)c2c[nH]c3ncc(-c4cnc(OC)nc4)cc23)c1F : solubility value = Insoluble

* * *

assayProcedure: Aqueous solubility of the compound in hepes buffer at pH 7.4
Type: physicochemical
measuredProperty: solubility

See these solved cases before continuing.
[[record]]
mol = "COc1ncc(-c2cnc3[nH]cc(C(=O)c4c(F)ccc(NS(=O)(=O)c5ccccc5F)c4F)c3c2)cn1"
valuereported = "Insoluble"

[[record]]
mol = "CCCS(=O)(=O)Nc1ccc(F)c(C(=O)c2c[nH]c3ncc(-c4ccc(S(=O)(=O)NC5CC5)cc4)cc23)c1F"
valuereported = "Insoluble"

[[record]]
mol = "CCCS(=O)(=O)Nc1ccc(F)c(C(=O)c2c[nH]c3ncc(-c4ccnc(F)c4)cc23)c1F"
valuereported = "Insoluble"

[[record]]
mol = "COc1cnc2[nH]cc(C(=O)c3c(F)ccc(NS(=O)(=O)c4cc(F)ccc4F)c3F)c2c1"
valuereported = "Soluble"

[[record]]
mol = "CCCS(=O)(=O)Nc1ccc(F)c(C(=O)c2c[nH]c3ncc(-c4ccc(S(=O)(=O)N5CCOCC5)cc4)cc23)c1F"
valuereported = "Insoluble"


// solubility lookup, compound = CCCS(=O)(=O)Nc1ccc(F)c(C(=O)c2c[nH]c3ncc(C#CCOC)cc23)c1F , result: Soluble

Lab note: CCCS(=O)(=O)Nc1ccc(F)c(C(=O)c2c[nH]c3ncc(-c4cnc(C)nc4)cc23)c1F gave solubility of Soluble

Sure, the documented solubility for CCCS(=O)(=O)Nc1ccc(F)c(C(=O)c2c[nH]c3ncc(-c4ccc(OC)nc4OC)cc23)c1F is Insoluble

* * *

assayProcedure: Aqueous solubility of the compound in hepes buffer at pH 7.4
Type: physicochemical
measuredProperty: solubility

[[record]]
mol = "CCCS(=O)(=O)Nc1ccc(F)c(C(=O)c2c[nH]c3ncc(-c4ccc(N(C)C)nc4)cc23)c1F"
valuereported = "Soluble"

[[record]]
mol = "N#Cc1ccnc2[nH]cc(C(=O)c3c(F)ccc(NS(=O)(=O)c4ccccc4F)c3F)c12"
valuereported = "Soluble"

[[record]]
mol = "CCCS(=O)(=O)Nc1ccc(F)c(C(=O)c2c[nH]c3ncc(-c4ccc(C(=O)NCC)nc4)cc23)c1F"
valuereported = "Insoluble"

[[record]]
mol = "COc1ccnc2[nH]cc(C(=O)c3c(F)ccc(NS(=O)(=O)c4ccccc4F)c3F)c12"
valuereported = "Soluble"

[[record]]
mol = "CCCS(=O)(=O)Nc1ccc(F)c(C(=O)c2c[nH]c3ncc(-c4ccc(S(C)(=O)=O)cc4)cc23)c1F"
valuereported = "Insoluble"

[[record]]
mol = "CCCS(=O)(=O)Nc1ccc(F)c(C(=O)c2c[nH]c3ncc(-c4cn[nH]c4)cc23)c1F"
valuereported = "Insoluble"

[[record]]
mol = "CCCS(=O)(=O)Nc1ccc(F)c(C(=O)c2c[nH]c3ncc(-c4ccc(OCCN5CCCC5)nc4)cc23)c1F"
valuereported = "Soluble"

[[record]]
mol = "O=C(c1c(F)ccc(NS(=O)(=O)c2cccnc2)c1F)c1c[nH]c2ncc(Cl)cc12"
valuereported = "Soluble"

[[record]]
mol = "N#Cc1cnc2[nH]cc(C(=O)c3cccc(NS(=O)(=O)c4cccnc4)c3F)c2c1"
valuereported = "Soluble"

[[record]]
mol = "CCCS(=O)(=O)Nc1ccc(F)c(C(=O)c2c[nH]c3ncc(-c4cnc(N5CCCC5)nc4)cc23)c1F"
valuereported = "Insoluble"


solubility for CCCS(=O)(=O)Nc1ccc(F)c(C(=O)c2c[nH]c3ncc(-c4cnn(Cc5ccccc5)c4)cc23)c1F is Insoluble

Entry under test: CCCS(=O)(=O)Nc1ccc(F)c(C(=O)c2c[nH]c3ncc(-c4ccc(S(=O)(=O)N(C)C)cc4)cc23)c1F . Its solubility was Insoluble

Lab book: solubility of N#Cc1cnc2[nH]cc(C(=O)c3cccc(NS(=O)(=O)c4ccccc4)c3F)c2c1 noted as Soluble

Documented solubility of CCCS(=O)(=O)Nc1ccc(F)c(C(=O)c2c[nH]c3ncc(-c4cncc(S(C)(=O)=O)c4)cc23)c1F : Soluble

So for N#Cc1cnc2[nH]cc(C(=O)c3c(F)ccc(NS(=O)(=O)c4ccccc4)c3F)c2c1 , the logged solubility turned out to be Soluble

Per the record, CCCS(=O)(=O)Nc1ccc(F)c(C(=O)c2c[nH]c3ncc(-c4ccc(F)nc4)cc23)c1F has solubility of Insoluble

response.value for CCCS(=O)(=O)Nc1ccc(F)c(C(=O)c2c[nH]c3ncc(-c4ccc(OCCN5CCOCC5)nc4)cc23)c1F (field: solubility) = Insoluble

Every entry's value here was drawn from ChEMBL document CHEMBL3879902.
